Numbers sourced from patent US10711004B2.

Molecular target: UniProt O75762
Sequence (O75762 whole entry): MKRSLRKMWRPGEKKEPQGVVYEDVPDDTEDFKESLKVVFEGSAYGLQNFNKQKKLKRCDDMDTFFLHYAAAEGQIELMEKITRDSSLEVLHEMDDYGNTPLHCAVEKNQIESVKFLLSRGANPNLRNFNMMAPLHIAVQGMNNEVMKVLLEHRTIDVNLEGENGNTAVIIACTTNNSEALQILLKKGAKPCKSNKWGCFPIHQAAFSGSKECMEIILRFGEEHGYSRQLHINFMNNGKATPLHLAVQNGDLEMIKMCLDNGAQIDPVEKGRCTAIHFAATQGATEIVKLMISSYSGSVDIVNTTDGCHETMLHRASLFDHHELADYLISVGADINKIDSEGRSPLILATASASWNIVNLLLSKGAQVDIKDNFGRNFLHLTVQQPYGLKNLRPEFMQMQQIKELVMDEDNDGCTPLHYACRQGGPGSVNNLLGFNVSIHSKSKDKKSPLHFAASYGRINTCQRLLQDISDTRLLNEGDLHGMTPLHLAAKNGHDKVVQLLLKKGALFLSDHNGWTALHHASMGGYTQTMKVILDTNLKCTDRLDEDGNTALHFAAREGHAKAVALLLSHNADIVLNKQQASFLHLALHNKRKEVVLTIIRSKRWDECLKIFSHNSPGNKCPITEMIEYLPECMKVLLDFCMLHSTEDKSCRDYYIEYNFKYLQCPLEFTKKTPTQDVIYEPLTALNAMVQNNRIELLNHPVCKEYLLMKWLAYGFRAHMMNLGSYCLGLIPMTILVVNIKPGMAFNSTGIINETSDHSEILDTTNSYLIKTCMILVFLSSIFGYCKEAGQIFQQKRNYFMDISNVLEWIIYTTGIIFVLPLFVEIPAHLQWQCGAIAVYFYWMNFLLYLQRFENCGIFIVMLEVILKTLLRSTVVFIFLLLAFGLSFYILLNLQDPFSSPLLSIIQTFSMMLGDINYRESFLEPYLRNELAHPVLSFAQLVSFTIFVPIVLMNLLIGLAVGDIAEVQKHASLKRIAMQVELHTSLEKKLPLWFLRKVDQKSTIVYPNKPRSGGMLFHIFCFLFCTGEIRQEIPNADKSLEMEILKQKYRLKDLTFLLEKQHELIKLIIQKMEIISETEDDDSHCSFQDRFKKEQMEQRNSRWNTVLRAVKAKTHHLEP
Assay: hTRPA1 CHO Ca2+ FLIPR Tetra assay, block of cinnamaldehyde induced calcium influx
Assay type: cell-based
Details: CHO cells expressing TRPA1; compounds incubated 10 minutes at room temperature before cinnamaldehyde agonist; Hill coefficient fixed to 1.5
pIC50: −log10 of the molar value.
I would appreciate it if you labelled entries Satisfied when pIC50 is 7 or higher, otherwise Not satisfied.

compound	class
Cc1ccnc2ncn(Cc3nc([C@H]4[C@@H]5Cc6ccccc6[C@@H]54)no3)c(=O)c12 (stereo in doubt) [Example Compound 15]	Not satisfied
Cn1cnc2ncn(Cc3nc([C@@H]4[C@H]5Cc6ccccc6[C@H]54)no3)c(=O)c21 (stereo in doubt) [Example Compound 2]	Not satisfied
Cn1cnc2ncn(Cc3nc([C@H]4[C@@H]5Cc6ccccc6[C@@H]54)no3)c(=O)c21 (stereo in doubt) [Example Compound 3]	Not satisfied
O=c1c2cccnc2cnn1Cc1nc([C@H]2[C@@H]3CN(c4ccccc4)C[C@@H]32)no1 [Example Compound 213]	Satisfied
Cc1cncc2ncn(Cc3nc([C@@H]4[C@H]5Cc6ccccc6[C@H]54)no3)c(=O)c12 (stereo in doubt) [Example Compound 19]	Satisfied
Cn1cnc2ncn(Cc3nc([C@@H]4[C@H]5C=C(c6ccc(-c7cnco7)cc6)C[C@H]54)no3)c(=O)c21 [Example Compound 277]	Satisfied
